Below, each entry is listed with its recorded Ki.
Assay: Inhibition of Streptococcus pneumoniae ASADH using aspartate semialdehyde and NADP+
Your answer should be a plain number; it is taken to be in µM.

CC(C)(C)c1ccc(CN(CC(=O)O)Cc2ccc(C(=O)O)c(C(=O)O)c2)cc1
16
O=C(O)CN(Cc1cccc(OC(F)(F)F)c1)Cc1ccc(C(=O)O)c(C(=O)O)c1
427
N#CCCN(CC(=O)O)Cc1ccc(C(=O)O)c(C(=O)O)c1
220

Let me know recorded Ki for O=C(O)CN(CCN1CCOCC1)Cc1ccc(C(=O)O)c(C(=O)O)c1 , thanks.
176

====

Test: Inhibition of Vibrio cholerae ASADH using aspartate semialdehyde and NADP+
Conditions: read-out: Ki
measured.quantity: Ki (µM)
Entry rule: numbers only, all in µM.

Example entries begin here.
NC(=O)c1ccc(CN(CC(=O)O)Cc2ccc(C(=O)O)c(C(=O)O)c2)cc1
649
O=C(O)CN(Cc1ccc(OC(F)F)cc1)Cc1ccc(C(=O)O)c(C(=O)O)c1
698
O=C(O)CN(Cc1ccc(C(=O)O)cc1)Cc1ccc(C(=O)O)c(C(=O)O)c1
635
O=C(O)CN(Cc1ccc(C(F)(F)F)cc1)Cc1ccc(C(=O)O)c(C(=O)O)c1
628
O=C(O)CN(Cc1cccc(OC(F)(F)F)c1)Cc1ccc(C(=O)O)c(C(=O)O)c1
684
O=C(O)CN(Cc1cccc(Br)c1)Cc1ccc(C(=O)O)c(C(=O)O)c1
665

Now look at this entry.
Note Ki for the compound shown: CC(C)(C)c1ccc(CN(CC(=O)O)Cc2ccc(C(=O)O)c(C(=O)O)c2)cc1
648

====

Below, each of the compounds is paired with its reported pKi value.
Assay: Inhibition of Vibrio cholerae ASADH using aspartate semialdehyde and NADP+
Details: read-out: Ki
# pKi = -log10(concentration in molar units)

O=C(O)c1ccc(CN[C@@H](CO)C(=O)O)cc1C(=O)O
3.18

Now for another entry.
Answer with reported pKi of C=CCN(CC(=O)O)Cc1ccc(C(=O)O)c(C(=O)O)c1
3.18

====

Assay: Inhibition of Streptococcus pneumoniae ASADH using aspartate semialdehyde and NADP+
pKi: −log10 of the molar value.
Label scheme for pKi: lower than 4 is condition not met, 4 and above is condition met.

O=C(O)CN(Cc1ccc(OC(F)F)cc1)Cc1ccc(C(=O)O)c(C(=O)O)c1
condition met
Cc1ccccc1CN(CC(=O)O)Cc1ccc(C(=O)O)c(C(=O)O)c1
condition not met
O=CCN(CC(=O)O)Cc1ccc(C(=O)O)c(C(=O)O)c1
condition not met

Tell me whether pKi is at least 4 here: CN(CC(=O)O)Cc1cccc(C(=O)O)c1C(=O)O
condition not met

Is pKi at least 4? Consider O=C([O-])CCNCc1ccc(C(=O)[O-])c(C(=O)[O-])c1.[Na+].[Na+].[Na+]
condition not met

Given the entry C[C@H](NCc1ccc(C(=O)O)c(C(=O)O)c1)C(=O)O , answer whether its pKi meets or surpasses 4.
condition not met

====

Experiment: Inhibition of Vibrio cholerae ASADH using aspartate semialdehyde and NADP+
Conditions: read-out: Ki
# key: entry, value: Ki

The following compounds have reported results that may help.
O=C(O)CN(Cc1ccccc1)Cc1ccc(C(=O)O)c(C(=O)O)c1
696 µM
O=C(O)CN(Cc1ccc(C(=O)O)c(C(=O)O)c1)Cc1ccccc1Br
737 µM

Now for the compound whose Ki we want.
Give reported Ki value for Cc1ccccc1CN(CC(=O)O)Cc1ccc(C(=O)O)c(C(=O)O)c1
721 µM

====

Experiment: Inhibition of Vibrio cholerae ASADH using aspartate semialdehyde and NADP+
Conditions: read-out: Ki
measured.quantity: Ki
Please don't drop the unit; write it after the number.

As a guide, the following entries are already answered.
CN(CC(=O)O)Cc1ccc(C(=O)O)c(C(=O)O)c1
675 µM
O=C(O)CN(Cc1ccc(Br)cc1)Cc1ccc(C(=O)O)c(C(=O)O)c1
629 µM
C[C@H](NCc1ccc(C(=O)O)c(C(=O)O)c1)C(=O)O
609 µM
O=C(O)CN(CCN1CCOCC1)Cc1ccc(C(=O)O)c(C(=O)O)c1
692 µM
O=C(O)CN(Cc1ccc(/C=C/Cc2ccccc2)cc1)Cc1ccc(C(=O)O)c(C(=O)O)c1
1100 µM

For the compound O=CCN(CC(=O)O)Cc1ccc(C(=O)O)c(C(=O)O)c1 , report Ki.
655 µM

Respond only with Ki recorded for Cc1cccc(CN(CC(=O)O)Cc2ccc(C(=O)O)c(C(=O)O)c2)c1
690 µM

====

Assay: Inhibition of Vibrio cholerae ASADH using aspartate semialdehyde and NADP+
Conditions: read-out: Ki
measured.quantity: pKi
Please express pKi as -log10 of the molar concentration.

Example cases with answers are listed next.
O=C(O)CN(Cc1ccc(C(=O)O)c(C(=O)O)c1)Cc1ccccc1C(F)(F)F
3.14
O=C(O)CN(Cc1ccc(C(=O)O)c(C(=O)O)c1)Cc1ccccc1OC(F)(F)F
3.15
O=C(O)CN(Cc1ccc(OC(F)(F)F)cc1)Cc1ccc(C(=O)O)c(C(=O)O)c1
3.18
N#CCCN(CC(=O)O)Cc1ccc(C(=O)O)c(C(=O)O)c1
3.30
O=C(O)CNCc1ccc(C(=O)O)c(C(=O)O)c1
3.28
Cc1ccc(CN(CC(=O)O)Cc2ccc(C(=O)O)c(C(=O)O)c2)cc1
3.22

Let us move to another entry and its pKi.
Identify measured pKi corresponding to O=C(O)CN(Cc1cccc(C(F)(F)F)c1)Cc1ccc(C(=O)O)c(C(=O)O)c1
3.17
